target: Human FXRα Ligand Binding Domain (FXRα LBD) (Homo sapiens, UniProt Q96RI1); construct: polyhistidine (N); made in house; host or cells: E. coli BL21 (DE3), pRSET-A vector; assay: FXR Affinity Binding Assay: ligand mediated cofactor peptide (SRC-1 LCD2, 676-700) interaction, time resolved fluorescence; details: FXRα LBD-APC / europium labeled SRC-1 peptide, TRF signal, at least 2 hours at room temperature; read-out: Activity (pEC50) (converted)
Sequence (Q96RI1 236-486): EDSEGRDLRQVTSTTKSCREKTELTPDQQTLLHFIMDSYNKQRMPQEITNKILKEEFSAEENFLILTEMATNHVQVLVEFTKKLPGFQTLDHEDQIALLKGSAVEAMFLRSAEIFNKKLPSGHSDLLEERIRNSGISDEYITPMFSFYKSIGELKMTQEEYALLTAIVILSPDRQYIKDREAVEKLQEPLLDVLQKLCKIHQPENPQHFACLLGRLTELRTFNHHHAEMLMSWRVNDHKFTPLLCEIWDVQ
Overview of recorded EC50 for various compounds

>  <STRUCTURE>
CCOC(=O)c1cccc(NCc2ccc(OCc3c(-c4ccccc4OC(F)(F)F)noc3C(C)C)cc2Cl)c1

>  <TARGET>
Human FXRα Ligand Binding Domain (FXRα LBD) (Homo sapiens, UniProt Q96RI1)

>  <EC50>
102 to 1000 nM

$$$$
>  <STRUCTURE>
CC(C)c1onc(-c2ccccc2OC(F)(F)F)c1COc1ccc(N(C)C(=O)c2cccc(C(=O)O)c2)c(Cl)c1

>  <TARGET>
Human FXRα Ligand Binding Domain (FXRα LBD) (Homo sapiens, UniProt Q96RI1)

>  <EC50>
102 to 1000 nM

$$$$
>  <STRUCTURE>
Cc1cc(OCc2c(-c3c(Cl)cccc3Cl)noc2C(C)C)ccc1N(C)Cc1cccc(CO)c1

>  <TARGET>
Human FXRα Ligand Binding Domain (FXRα LBD) (Homo sapiens, UniProt Q96RI1)

>  <EC50>
< 100 nM

$$$$
>  <STRUCTURE>
Cc1cc(OCc2c(-c3c(Cl)cccc3Cl)noc2C(C)C)ccc1NS(=O)(=O)c1ccc(C(=O)O)cc1

>  <TARGET>
Human FXRα Ligand Binding Domain (FXRα LBD) (Homo sapiens, UniProt Q96RI1)

>  <EC50>
102 to 1000 nM

$$$$

* * *

Target: Human FXRα Ligand Binding Domain (FXRα LBD) (Homo sapiens, UniProt Q96RI1)
Construct: polyhistidine (N); made in house; host or cells: E. coli BL21 (DE3), pRSET-A vector
Experiment: FXR Affinity Binding Assay: ligand mediated cofactor peptide (SRC-1 LCD2, 676-700) interaction, time resolved fluorescence
Conditions: FXRα LBD-APC / europium labeled SRC-1 peptide, TRF signal, at least 2 hours at room temperature; read-out: Activity (pEC50) (converted)
Description: Determination of a ligand mediated cofactor peptide interaction to quantify ligand binding to the nuclear receptor Farnasoid X Receptor (FXR). […] Detection of the associated complex is measured by time resolved fluorescence (TRF). […] After equilibration, the time-resolved fluorescent signal is quantitated using a fluorescent plate reader. The affinity of the test compound is estimated from a plot of fluorescence versus concentration of test compound added. […]
ASSAY ENDPOINT: EC50

>  <STRUCTURE>
CCN(c1ccc(OCc2c(-c3c(Cl)cccc3Cl)noc2C(C)C)cc1Cl)S(=O)(=O)c1cccc(C(=O)O)c1

>  <ASSAY ENDPOINT>
EC50

>  <DATA VALUE>
< 0.1 µM

$$$$
>  <STRUCTURE>
COC(=O)c1cccc(S(=O)(=O)Nc2ccc(OCc3c(-c4c(Cl)cccc4Cl)noc3C(C)C)cc2)c1

>  <ASSAY ENDPOINT>
EC50

>  <DATA VALUE>
0.102 to 1 µM

$$$$
>  <STRUCTURE>
CCc1onc(Cc2c(Cl)cccc2Cl)c1COc1ccc(COc2cccc(C(=O)O)c2)c(Cl)c1

>  <ASSAY ENDPOINT>
EC50

>  <DATA VALUE>
0.102 to 1 µM

$$$$
>  <STRUCTURE>
COC(=O)c1cccc(S(=O)(=O)N(C)c2ccc(OCc3c(-c4c(Cl)cccc4Cl)noc3C(C)C)cc2)c1

>  <ASSAY ENDPOINT>
EC50

>  <DATA VALUE>
0.102 to 1 µM

$$$$
>  <STRUCTURE>
Cc1cc(OCc2c(Cc3c(Cl)cccc3Cl)noc2C(C)C)ccc1N(C)Cc1cccc(C(=O)O)c1

>  <ASSAY ENDPOINT>
EC50

>  <DATA VALUE>
0.102 to 1 µM

$$$$
>  <STRUCTURE>
COC(=O)c1cccc(S(=O)(=O)N(C)c2ccc(OCc3c(-c4c(Cl)cccc4Cl)noc3C(C)C)cc2Cl)c1

>  <ASSAY ENDPOINT>
EC50

>  <DATA VALUE>
0.102 to 1 µM

$$$$
>  <STRUCTURE>
CC(C)c1onc(-c2c(Cl)cccc2Cl)c1COc1ccc(NS(=O)(=O)c2cccc(C(=O)O)c2)c(Cl)c1

>  <ASSAY ENDPOINT>
EC50

>  <DATA VALUE>
0.102 to 1 µM

$$$$
>  <STRUCTURE>
Cc1cc(OCc2c(-c3c(Cl)cccc3Cl)noc2C(C)C)ccc1N(C)Cc1ccc(C#N)cc1

>  <ASSAY ENDPOINT>
EC50

>  <DATA VALUE>
0.102 to 1 µM

$$$$
>  <STRUCTURE>
Cc1cc(OCc2c(Cc3c(Cl)cccc3Cl)noc2C2CC2)ccc1N(C)Cc1cccc(C(=O)O)c1

>  <ASSAY ENDPOINT>
EC50

>  <DATA VALUE>
0.102 to 1 µM

$$$$
>  <STRUCTURE>
Cc1cc(OCc2c(-c3c(Cl)cccc3Cl)noc2C(C)C)ccc1N(C)Cc1occc1C(=O)O

>  <ASSAY ENDPOINT>
EC50

>  <DATA VALUE>
0.102 to 1 µM

$$$$
>  <STRUCTURE>
COC(=O)c1cccc(S(=O)(=O)Nc2ccc(OCc3c(-c4c(Cl)cccc4Cl)noc3C(C)C)cc2Cl)c1

>  <ASSAY ENDPOINT>
EC50

>  <DATA VALUE>
0.102 to 1 µM

$$$$
>  <STRUCTURE>
COC(=O)c1ccc(CN(C)c2ccc(OCc3c(-c4c(Cl)cccc4Cl)noc3C(C)C)cc2C)cc1

>  <ASSAY ENDPOINT>
EC50

>  <DATA VALUE>
< 0.1 µM

$$$$

* * *

Biological target: Human FXRα Ligand Binding Domain (FXRα LBD) (Homo sapiens)
Construct: polyhistidine (N); made in house; host or cells: E. coli BL21 (DE3), pRSET-A vector
Experiment: FXR Affinity Binding Assay: ligand mediated cofactor peptide (SRC-1 LCD2, 676-700) interaction, time resolved fluorescence
Details: FXRα LBD-APC / europium labeled SRC-1 peptide, TRF signal, at least 2 hours at room temperature; read-out: Activity (pEC50) (converted)
Protocol: Determination of a ligand mediated cofactor peptide interaction to quantify ligand binding to the nuclear receptor Farnasoid X Receptor (FXR). […] Detection of the associated complex is measured by time resolved fluorescence (TRF). […] After equilibration, the time-resolved fluorescent signal is quantitated using a fluorescent plate reader. The affinity of the test compound is estimated from a plot of fluorescence versus concentration of test compound added. […]
Overview of recorded EC50 for various molecules

>  <MOLECULE>
CC(C)c1onc(-c2c(Cl)cccc2Cl)c1COc1ccc(NCc2cccc(C(=O)O)c2)c(Cl)c1 [Example 3]

>  <TARGET>
Human FXRα Ligand Binding Domain (FXRα LBD) (Homo sapiens)

>  <EC50>
0.102 to 1 µM

$$$$
>  <MOLECULE>
Cc1cc(OCc2c(-c3c(Cl)cccc3Cl)noc2C(C)C)ccc1N(C)Cc1ccc(-c2csnn2)cc1 [Example 8]

>  <TARGET>
Human FXRα Ligand Binding Domain (FXRα LBD) (Homo sapiens)

>  <EC50>
0.102 to 1 µM

$$$$
>  <MOLECULE>
CC(C)c1onc(-c2c(Cl)cccc2Cl)c1COc1ccc(COc2ccc(C(=O)O)cc2)c(Cl)c1 [Example 81]

>  <TARGET>
Human FXRα Ligand Binding Domain (FXRα LBD) (Homo sapiens)

>  <EC50>
< 0.1 µM

$$$$
>  <MOLECULE>
CC(C)c1onc(-c2ccccc2OC(F)(F)F)c1COc1ccc(CNc2cccc(C(=O)O)c2)c(Cl)c1 [Example 96]

>  <TARGET>
Human FXRα Ligand Binding Domain (FXRα LBD) (Homo sapiens)

>  <EC50>
0.102 to 1 µM

$$$$
>  <MOLECULE>
CC(C)c1onc(-c2c(Cl)cccc2Cl)c1COc1ccc(CSc2cccc(C(=O)O)c2)c(Cl)c1 [Example 78]

>  <TARGET>
Human FXRα Ligand Binding Domain (FXRα LBD) (Homo sapiens)

>  <EC50>
< 0.1 µM

$$$$
>  <MOLECULE>
CCN(c1ccc(OCc2c(-c3c(Cl)cccc3Cl)noc2C(C)C)cc1)S(=O)(=O)c1ccc(C(=O)OC)cc1 [Example 61]

>  <TARGET>
Human FXRα Ligand Binding Domain (FXRα LBD) (Homo sapiens)

>  <EC50>
1.02 to 10 µM

$$$$
>  <MOLECULE>
COC(=O)c1cccc(SCc2ccc(OCc3c(-c4ccccc4OC(F)(F)F)noc3C(C)C)cc2C)c1 [Example 89]

>  <TARGET>
Human FXRα Ligand Binding Domain (FXRα LBD) (Homo sapiens)

>  <EC50>
0.102 to 1 µM

$$$$
>  <MOLECULE>
Cc1cc(OCc2c(-c3c(Cl)cccc3Cl)noc2C(C)C)ccc1NC(=O)c1ccc(C(=O)O)cc1 [Example 27]

>  <TARGET>
Human FXRα Ligand Binding Domain (FXRα LBD) (Homo sapiens)

>  <EC50>
0.102 to 1 µM

$$$$
